The reported numbers originate from patent US20140205597A1.

target: T1, purified interference factor(s) from serum of Donor C; experiment: Biacore, immobilized interference factor
T1 construct: text names Donors 8, 19 and 30
metric: binding vs Reference Sequence (=100%)
Give a bare numeral; the unit % is implied.

Worked examples follow.
>>> result_value("SEQ ID NO 70 (VHH, T110Q) VHH: EVQLVESGGGLVQPGGSLRLSCAASRSIGRLDRMGWYRHRPGEPRELVATITGGSSINYGDSVKGRFTISIDNSKNTVYLQMNSLRPEDTAVYYCNFNKYVTSRDTWGQGTLVQVSS")
98
>>> result_value("SEQ ID NO 79 (VHH, C-terminal: GG) VHH: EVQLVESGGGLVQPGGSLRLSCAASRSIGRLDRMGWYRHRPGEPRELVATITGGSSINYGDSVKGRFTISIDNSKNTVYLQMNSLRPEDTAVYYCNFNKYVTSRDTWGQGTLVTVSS")
13

Consider now this further binder.
Per the records, this binder ( SEQ ID NO 86 (VHH, L11S, T110Q) VHH: EVQLVESGGGSVQPGGSLRLSCAASRSIGRLDRMGWYRHRPGEPRELVATITGGSSINYGDSVKGRFTISIDNSKNTVYLQMNSLRPEDTAVYYCNFNKYVTSRDTWGQGTLVQVSS ) has binding vs Reference Sequence (=100%) equal to 86
